// provenance: paper PMC10329973

# EXPERIMENT_SUMMARY: Multiple ascending dose study NP10679-102, plasma pharmacokinetics
# Format: in vivo
# CONDITION_DESCRIPTION: human, iv, 25 mg, AUC 0–24, MAD, 25 mg IV once daily, day 3
ENDPOINT: AUC(0-t) (ng·h/mL)
One number for each entry, in ng·h/mL.

I have this compound here, O=C1CCc2cc(OC[C@H](O)CN3CCN(c4ccc(C(F)(F)F)cc4)CC3)ccc2N1 [NP10679] , and I need its recorded AUC(0-t). 2090

* * *

# EXPERIMENT_SUMMARY: Multiple ascending dose study NP10679-102, plasma pharmacokinetics
# Format: in vivo
# CONDITION_DESCRIPTION: human, iv, 100 mg, T 1/2, MAD, 100 mg IV once daily, day 5
ENDPOINT: half-life (h)
Answers are plain numbers, in h.

Requested read-out: half-life. Entry: "O=C1CCc2cc(OC[C@H](O)CN3CCN(c4ccc(C(F)(F)F)cc4)CC3)ccc2N1" 13
